- Tested target: AR (Homo sapiens, UniProt P10275, T878A)
- Construct: The cells of LNCaP-ARR2PB-eGFP were; endogenous in cells
- Sequence (P10275 whole entry T878A): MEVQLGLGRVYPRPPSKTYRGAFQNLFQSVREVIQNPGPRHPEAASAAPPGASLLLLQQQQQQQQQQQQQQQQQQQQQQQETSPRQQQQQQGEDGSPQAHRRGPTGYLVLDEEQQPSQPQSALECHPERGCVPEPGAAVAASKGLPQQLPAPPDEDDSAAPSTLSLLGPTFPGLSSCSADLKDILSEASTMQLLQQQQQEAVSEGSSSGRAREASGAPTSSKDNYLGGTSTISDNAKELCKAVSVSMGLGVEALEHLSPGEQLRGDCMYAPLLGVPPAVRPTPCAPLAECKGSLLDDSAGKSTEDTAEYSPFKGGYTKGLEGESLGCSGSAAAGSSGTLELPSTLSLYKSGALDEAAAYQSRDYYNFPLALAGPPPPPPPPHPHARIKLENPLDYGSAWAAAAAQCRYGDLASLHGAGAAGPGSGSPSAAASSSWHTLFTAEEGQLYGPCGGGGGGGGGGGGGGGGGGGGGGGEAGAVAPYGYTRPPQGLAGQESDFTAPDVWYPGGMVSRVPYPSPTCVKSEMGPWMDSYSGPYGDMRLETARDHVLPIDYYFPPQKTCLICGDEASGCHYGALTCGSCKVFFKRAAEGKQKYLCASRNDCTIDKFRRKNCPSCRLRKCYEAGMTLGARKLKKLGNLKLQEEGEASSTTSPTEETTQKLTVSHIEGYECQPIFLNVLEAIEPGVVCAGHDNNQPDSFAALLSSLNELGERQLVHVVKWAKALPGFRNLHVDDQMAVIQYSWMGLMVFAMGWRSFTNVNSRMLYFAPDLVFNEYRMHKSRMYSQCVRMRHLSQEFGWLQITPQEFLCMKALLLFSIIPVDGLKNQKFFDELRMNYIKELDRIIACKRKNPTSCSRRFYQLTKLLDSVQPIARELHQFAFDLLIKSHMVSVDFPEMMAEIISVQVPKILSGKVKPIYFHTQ
- Run description: AR transcriptional activity assay (LNCaP-ARR2PB-eGFP cells)
- Test conditions: LNCaP-ARR2PB-eGFP cells, 5 nM DHT, 3 days
Value type: IC50 (nM)

(I) CC(=O)Cc1nsc(NC(=O)c2cc(-c3ccc(Cl)c(Cl)c3)oc2C)n1
(II) CC(=O)Cc1nsc(NC(=O)c2cc(-c3cccc(C(F)(F)F)c3)oc2C)n1
// returns I or II , whichever has the lower IC50 Which one? Tell me its label.
II
(II: 30 nM, I: 950 nM)
